- MEASURED ON: T1, recombinant human CTGF-Fc protein (Creative Biomart) (human)
- T1 construct: Bought; also called human CTGF with a human IgG1 Fc Tag
- PROTOCOL DESCRIPTION: SPR (Biacore)

# BINDER, kon, M⁻¹ s⁻¹
rows = [
    ("lipocalin mutein of SEQ ID NO: 26 (designed binder, also called hNGAL mutein; not shown: C-terminal His-tag) QDSTSDLIPAPPLSKVPLQQNFQDNQFQGKWYVVGLAGNYRLREDKDPSKMGATIYELKEDKSYDVTQVQFDDKKCLYVIETFVPGSQPGEFTLGNIKVYPTLESQLVRVVSTNYNQHAMVFFKKVYQNREVFWITLYGRTKELTSELKENFIRFSKSLGLPENHIVFPVPIDQCIDG", 23200),
    ("lipocalin mutein of SEQ ID NO: 36 (designed binder, also called hNGAL mutein) QDSTSDLIPAPPLSKVPLQQNFQDNQFQGKWYVVGWAGNVKLREDKQPAKMSATIYELKEDKSYDVTEVVFEQKKCHYIIKTFVPGSQPGEFTAGDIKSPPGYTSSLVRVVSTNYNQHAMVFFKKVGQNREFFWITLYGRTKELTSELKENFIRFSKSLGLPENHIVFPVPIDQCIDG", 165000),
    ("lipocalin mutein of SEQ ID NO: 13 (designed binder, also called hNGAL mutein; not shown: C-terminal His-tag) QDSTSDLIPAPPLSKVPLQQNFQDNQFQGKWYVVGLAGNAILREDKYPAKMFATIYELKEDKSYDVTSVRFENKSCVYTSKTFVPGSQPGEFTTGNIKSAPGQTSTLVRVVSTNYNQHAMVFFKHVSQNREFFVITLYGRTKELTSELKENFIRFSKSLGLPENHIVFPVPIDQCIDG", 51000),
]

Reference for the values: patent US20240228562A1
